Data origin, for the record: patent US4201843A

Test system: Staphylococcus aureus FAD209P
MIC: recorded values
Numbers only; they are read as µg/mL.

Some molecules with known MIC results, for comparison:
CCCC(=O)OC1C(C)OC(OC2C(C)OC(OC3C(CC=O)CC(C)C(=O)C=CC(C)=CC(COC4OC(C)C(O)C(OC)C4OC)C(CC)OC(=O)CC(OC(=O)CC)C3C)C(O)C2N(C)C)CC1(C)O (stereo not drawn) [3-propionyl-4"-n-butyryltylosin] ... 0.98
CCC(=O)OC1CC(=O)OC(CC)C(COC2OC(C)C(O)C(OC)C2OC)C=C(C)C=CC(=O)C(C)CC(CC=O)C(OC2OC(C)C(OC3CC(C)(O)C(OC(=O)CC(C)C)C(C)O3)C(N(C)C)C2O)C1C (stereo not drawn) [3-propionyl-4"-isovaleryltylosin] ... 0.49
CC[C@H]1OC(=O)C[C@@H](O)[C@H](C)[C@@H](O[C@@H]2O[C@H](C)[C@@H](O[C@H]3C[C@@](C)(O)[C@@H](O)[C@H](C)O3)[C@H](N(C)C)[C@H]2O)[C@@H](CC=O)C[C@@H](C)C(=O)/C=C/C(C)=C/[C@@H]1CO[C@@H]1O[C@H](C)[C@@H](O)[C@@H](OC)[C@H]1OC [tylosin] ... 0.49
CCC1OC(=O)CC(OC(C)=O)C(C)C(OC2OC(C)C(OC3CC(C)(O)C(OC(=O)CC(C)C)C(C)O3)C(N(C)C)C2O)C(CC=O)CC(C)C(=O)C=CC(C)=CC1COC1OC(C)C(O)C(OC)C1OC (stereo not drawn) [3-acetyl-4"-isovaleryltylosin] ... 0.49
CCCC(=O)OC1C(C)OC(OC2C(C)OC(OC3C(CC=O)CC(C)C(=O)C=CC(C)=CC(COC4OC(C)C(O)C(OC)C4OC)C(CC)OC(=O)CC(OC(C)=O)C3C)C(O)C2N(C)C)CC1(C)O (stereo not drawn) [3-acetyl-4"-n-butyryltylosin] ... 0.25
CCC(=O)OC1CC(=O)OC(CC)C(COC2OC(C)C(O)C(OC)C2OC)/C=C(C)/C=C/C(=O)C(C)CC(CC=O)C(OC2OC(C)C(OC3CC(C)(O)C(O)C(C)O3)C(N(C)C)C2O)C1C (stereo not drawn) [3-propionyltylosin] ... 0.25
CCCC(=O)OC1C(C)OC(OC2C(C)OC(OC3C(CC=O)CC(C)C(=O)/C=C/C(C)=C/C(COC4OC(C)C(O)C(OC)C4OC)C(CC)OC(=O)CC(O)C3C)C(O)C2N(C)C)CC1(C)O (stereo not drawn) [4"-n-butyryltylosin] ... 0.25
CCC1OC(=O)CC(O)C(C)C(OC2OC(C)C(OC3CC(C)(O)C(OC(=O)CC(C)C)C(C)O3)C(N(C)C)C2O)C(CC=O)CC(C)C(=O)/C=C/C(C)=C/C1COC1OC(C)C(O)C(OC)C1OC (stereo not drawn) [4"-isovaleryltylosin] ... 0.49

Next item in the queue.
Asked: Lab note: need MIC for CCC1OC(=O)CC(OC(C)=O)C(C)C(OC2OC(C)C(OC3CC(C)(O)C(O)C(C)O3)C(N(C)C)C2O)C(CC=O)CC(C)C(=O)/C=C/C(C)=C/C1COC1OC(C)C(O)C(OC)C1OC (stereo not drawn) [3-acetyltylosin] on Staphylococcus aureus FAD209P, anyone have it?
Given back: 0.25

* * *

Method summary: solubility in solvents
Assay type: physicochemical
Condition set: alkaline water
Assay endpoint: solubility in alkaline water

Some molecules with known solubility in alkaline water results, for comparison:
CCC1OC(=O)CC(O)C(C)C(OC2OC(C)C(OC3CC(C)(O)C(OC(=O)CC(C)C)C(C)O3)C(N(C)C)C2O)C(CC=O)CC(C)C(=O)/C=C/C(C)=C/C1COC1OC(C)C(O)C(OC)C1OC (centres unmarked) ... hardly soluble
CCC(=O)OC1CC(=O)OC(CC)C(COC2OC(C)C(O)C(OC)C2OC)C=C(C)C=CC(=O)C(C)CC(CC=O)C(OC2OC(C)C(OC3CC(C)(O)C(OC(=O)CC(C)C)C(C)O3)C(N(C)C)C2O)C1C (centres unmarked) ... hardly soluble
CCC1OC(=O)CC(OC(C)=O)C(C)C(OC2OC(C)C(OC3CC(C)(O)C(OC(=O)CC(C)C)C(C)O3)C(N(C)C)C2O)C(CC=O)CC(C)C(=O)C=CC(C)=CC1COC1OC(C)C(O)C(OC)C1OC (centres unmarked) ... hardly soluble
CCC(=O)OC1CC(=O)OC(CC)C(COC2OC(C)C(O)C(OC)C2OC)/C=C(C)/C=C/C(=O)C(C)CC(CC=O)C(OC2OC(C)C(OC3CC(C)(O)C(O)C(C)O3)C(N(C)C)C2O)C1C (centres unmarked) ... hardly soluble
CCC1OC(=O)CC(OC(C)=O)C(C)C(OC2OC(C)C(OC3CC(C)(O)C(O)C(C)O3)C(N(C)C)C2O)C(CC=O)CC(C)C(=O)/C=C/C(C)=C/C1COC1OC(C)C(O)C(OC)C1OC (centres unmarked) ... hardly soluble
CCCC(=O)OC1C(C)OC(OC2C(C)OC(OC3C(CC=O)CC(C)C(=O)C=CC(C)=CC(COC4OC(C)C(O)C(OC)C4OC)C(CC)OC(=O)CC(OC(C)=O)C3C)C(O)C2N(C)C)CC1(C)O (centres unmarked) ... hardly soluble
CCCC(=O)OC1C(C)OC(OC2C(C)OC(OC3C(CC=O)CC(C)C(=O)/C=C/C(C)=C/C(COC4OC(C)C(O)C(OC)C4OC)C(CC)OC(=O)CC(O)C3C)C(O)C2N(C)C)CC1(C)O (centres unmarked) ... hardly soluble

Next item in the queue.
Asked: Query: solubility in alkaline water; subject: CCCC(=O)OC1C(C)OC(OC2C(C)OC(OC3C(CC=O)CC(C)C(=O)C=CC(C)=CC(COC4OC(C)C(O)C(OC)C4OC)C(CC)OC(=O)CC(OC(=O)CC)C3C)C(O)C2N(C)C)CC1(C)O (centres unmarked)
Given back: hardly soluble

* * *

Proteus morganii (The Institute for Infectious Diseases): recorded MIC for assorted compounds

CC[C@H]1OC(=O)C[C@@H](O)[C@H](C)[C@@H](O[C@@H]2O[C@H](C)[C@@H](O[C@H]3C[C@@](C)(O)[C@@H](O)[C@H](C)O3)[C@H](N(C)C)[C@H]2O)[C@@H](CC=O)C[C@@H](C)C(=O)/C=C/C(C)=C/[C@@H]1CO[C@@H]1O[C@H](C)[C@@H](O)[C@@H](OC)[C@H]1OC [tylosin] ... > 250 µg/mL

Next item in the queue.
Asked: Lab note: need MIC for CCC1OC(=O)CC(OC(C)=O)C(C)C(OC2OC(C)C(OC3CC(C)(O)C(O)C(C)O3)C(N(C)C)C2O)C(CC=O)CC(C)C(=O)/C=C/C(C)=C/C1COC1OC(C)C(O)C(OC)C1OC (centres unmarked) [3-acetyltylosin] on Proteus morganii (The Institute for Infectious Diseases), anyone have it?
Given back: > 250 µg/mL

* * *

Method summary: basicity of the compounds (alkalinity)
Format: physicochemical
Assay endpoint: alkalinity

CCC(=O)OC1CC(=O)OC(CC)C(COC2OC(C)C(O)C(OC)C2OC)/C=C(C)/C=C/C(=O)C(C)CC(CC=O)C(OC2OC(C)C(OC3CC(C)(O)C(O)C(C)O3)C(N(C)C)C2O)C1C (centres unmarked) [3-propionyltylosin] ... alkaline compounds
CCCC(=O)OC1C(C)OC(OC2C(C)OC(OC3C(CC=O)CC(C)C(=O)C=CC(C)=CC(COC4OC(C)C(O)C(OC)C4OC)C(CC)OC(=O)CC(OC(C)=O)C3C)C(O)C2N(C)C)CC1(C)O (centres unmarked) [3-acetyl-4"-n-butyryltylosin] ... alkaline compounds
CCCC(=O)OC1C(C)OC(OC2C(C)OC(OC3C(CC=O)CC(C)C(=O)/C=C/C(C)=C/C(COC4OC(C)C(O)C(OC)C4OC)C(CC)OC(=O)CC(O)C3C)C(O)C2N(C)C)CC1(C)O (centres unmarked) [4"-n-butyryltylosin] ... alkaline compounds
CCC1OC(=O)CC(O)C(C)C(OC2OC(C)C(OC3CC(C)(O)C(OC(=O)CC(C)C)C(C)O3)C(N(C)C)C2O)C(CC=O)CC(C)C(=O)/C=C/C(C)=C/C1COC1OC(C)C(O)C(OC)C1OC (centres unmarked) [4"-isovaleryltylosin] ... alkaline compounds
CCC(=O)OC1CC(=O)OC(CC)C(COC2OC(C)C(O)C(OC)C2OC)C=C(C)C=CC(=O)C(C)CC(CC=O)C(OC2OC(C)C(OC3CC(C)(O)C(OC(=O)CC(C)C)C(C)O3)C(N(C)C)C2O)C1C (centres unmarked) [3-propionyl-4"-isovaleryltylosin] ... alkaline compounds

Asked: Query: alkalinity; subject: CCCC(=O)OC1C(C)OC(OC2C(C)OC(OC3C(CC=O)CC(C)C(=O)C=CC(C)=CC(COC4OC(C)C(O)C(OC)C4OC)C(CC)OC(=O)CC(OC(=O)CC)C3C)C(O)C2N(C)C)CC1(C)O (centres unmarked) [3-propionyl-4"-n-butyryltylosin]
Given back: alkaline compounds

Asked: Query: alkalinity; subject: CCC1OC(=O)CC(OC(C)=O)C(C)C(OC2OC(C)C(OC3CC(C)(O)C(OC(=O)CC(C)C)C(C)O3)C(N(C)C)C2O)C(CC=O)CC(C)C(=O)C=CC(C)=CC1COC1OC(C)C(O)C(OC)C1OC (centres unmarked) [3-acetyl-4"-isovaleryltylosin]
Given back: alkaline compounds

Asked: Query: alkalinity; subject: CCC1OC(=O)CC(OC(C)=O)C(C)C(OC2OC(C)C(OC3CC(C)(O)C(O)C(C)O3)C(N(C)C)C2O)C(CC=O)CC(C)C(=O)/C=C/C(C)=C/C1COC1OC(C)C(O)C(OC)C1OC (centres unmarked) [3-acetyltylosin]
Given back: alkaline compounds
